Please respond with reported Activity for every item in the list.
- Test system: Spodoptera litura
- protocol-notes: Antifeedant activity against Spodoptera litura at 5 ug
- Format: functional
Quick note: give the figure in %, leave out the unit.

Input line: Looking for the measured Activity of C/C=C(\C)C(=O)O[C@H]1C[C@@H](OC(C)=O)[C@@]2(C(=O)OC)CO[C@H]3[C@@H](O)[C@@](C)([C@]45O[C@@]4(C)[C@@H]4C[C@H]5O[C@@H]5OC=C[C@@]54O)[C@H]4[C@]1(CO[C@]4(O)C(=O)OC)[C@@H]32 [AZADIRACHTIN A] , can you help?
Output line: 100

Input line: Looking for the measured Activity of CC(=O)O[C@@H]1[C@H](O)[C@H]2C(C)(C)C(=O)C=C[C@]2(C)[C@H]2CC[C@]3(C)C(=CC[C@H]3c3ccoc3)[C@]12C [NIMONOL] , can you help?
Output line: 32.2

Input line: Looking for the measured Activity of CC(=O)O[C@@H]1[C@H](O)[C@H]2C(C)(C)C(=O)C=C[C@]2(C)[C@H]2CC[C@@]3(C)[C@H](C45CC(O)OC4O5)C[C@@H]4O[C@@]43[C@]12C (some centres undefined) [NIMONOL PP2] , can you help?
Output line: 73.5

Input line: Looking for the measured Activity of CC(=O)O[C@@H]1[C@H](O)[C@H]2C(C)(C)C(=O)C=C[C@]2(C)[C@H]2CC[C@@]3(C)[C@H](C4=CC(O)OC4=O)C[C@@H]4O[C@@]43[C@]12C (some centres undefined) [NIMONOLIDE] , can you help?
Output line: 82.5

----------
- Tested on: Spodoptera litura
- protocol-notes: Antifeedant activity against Spodoptera litura at 1 ug
- Format: functional
measurement-name: Activity (%)
Quick note: give the figure in %, leave out the unit.

Input line: Looking for the measured Activity of CC(=O)O[C@@H]1[C@H](O)[C@H]2C(C)(C)C(=O)C=C[C@]2(C)[C@H]2CC[C@]3(C)C(=CC[C@H]3c3ccoc3)[C@]12C [NIMONOL] , can you help?
Output line: 55.7

Input line: Looking for the measured Activity of CC(=O)O[C@@H]1[C@H](O)[C@H]2C(C)(C)C(=O)C=C[C@]2(C)[C@H]2CC[C@@]3(C)[C@H](C45CC(O)OC4O5)C[C@@H]4O[C@@]43[C@]12C (some centres undefined) [NIMONOL PP2] , can you help?
Output line: 68.7

Input line: Looking for the measured Activity of C/C=C(\C)C(=O)O[C@H]1C[C@@H](OC(C)=O)[C@@]2(C(=O)OC)CO[C@H]3[C@@H](O)[C@@](C)([C@]45O[C@@]4(C)[C@@H]4C[C@H]5O[C@@H]5OC=C[C@@]54O)[C@H]4[C@]1(CO[C@]4(O)C(=O)OC)[C@@H]32 [AZADIRACHTIN A] , can you help?
Output line: 85.5

Input line: Looking for the measured Activity of CC(=O)O[C@@H]1[C@H](O)[C@H]2C(C)(C)C(=O)C=C[C@]2(C)[C@H]2CC[C@@]3(C)[C@H](C4=CC(O)OC4=O)C[C@@H]4O[C@@]43[C@]12C (some centres undefined) [NIMONOLIDE] , can you help?
Output line: 80.2

Each recorded value in this set is attributed to ChEMBL document CHEMBL3046719.
